- Test system: human CRTH2 (Homo sapiens, UniProt Q9Y5Y4)
- Construct: expressed in transfected cells; host or cells: L1.2 cells, pEAK expression vector, puromycin-selected
- Sequence (Q9Y5Y4 whole entry): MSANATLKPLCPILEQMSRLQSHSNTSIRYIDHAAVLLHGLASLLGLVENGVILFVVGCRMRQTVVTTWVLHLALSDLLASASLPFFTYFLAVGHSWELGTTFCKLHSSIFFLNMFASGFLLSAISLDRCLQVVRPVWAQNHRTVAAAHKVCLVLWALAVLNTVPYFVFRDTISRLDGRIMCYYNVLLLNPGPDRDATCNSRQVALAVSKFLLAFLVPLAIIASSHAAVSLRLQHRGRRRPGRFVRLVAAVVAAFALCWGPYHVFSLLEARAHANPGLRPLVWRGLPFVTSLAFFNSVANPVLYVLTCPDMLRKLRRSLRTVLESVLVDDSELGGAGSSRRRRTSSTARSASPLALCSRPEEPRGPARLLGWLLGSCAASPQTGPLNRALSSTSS
- Method: Measurement of Ca2+ mobilization in the human CRTH2-transfected L1.2 cell line (Assay 1)
- Format: cell-based
- Protocol conditions: PGD2-induced Ca2+ mobilization in CRTH2-transfected L1.2 cells; compounds as yielded by solid phase synthesis, purity about 40 to 90%; read-out: Activity class
Observable: IC50

Provide value of IC50 for this record tested with human CRTH2 (Homo sapiens, UniProt Q9Y5Y4): "CN(C)c1nc(Cc2ccc(NC(=O)c3ccc4ccccc4c3)cc2)nc(N2CCCCC2)c1CC(=O)O"
10 to 100 nM

Ok, now "CN(C)c1nc(Cc2ccc(NC(=O)NCc3ccccc3)cc2)ncc1CC(=O)O"
10 to 100 nM

Would you mind doing "CN(CC(=O)N1CCCC1)c1nc(Cc2ccc(NC(=O)c3ccc4ccccc4c3)cc2)nc(Cl)c1CC(=O)O" as well?
< 10 nM

Here is the next molecule: "CN(C)c1nc(Cc2ccc(NC(=O)c3cccc(Cl)c3)cc2)ncc1CC(=O)O"
10 to 100 nM

Thanks! And "CN(C)c1nc(Cc2ccc(NC(=O)c3cccc(Cl)c3)cc2)nc(Cl)c1CC(=O)O" ?
< 10 nM

Item: "O=C(O)Cc1c(Cl)nc(Cc2ccc(NC(=O)c3ccc(-n4cccc4)cc3)cc2)nc1N1CCCC1"
< 10 nM

And then CC(c1ccc(NC(=O)c2ccc3ccccc3c2)cc1)c1ncc(CC(=O)O)c(N(C)C)n1 (stereo not shown) , what is it?
< 10 nM

Same question for "CN(C)c1nc(Cc2ccc(N(C)C(=O)c3ccc4ccccc4n3)cc2)nc(Cl)c1CC(=O)O" please.
> 500 nM

Next molecule up: "CN(CC(=O)NC1CCCC1)c1nc(Cc2ccc(NC(=O)/C=C/c3ccccc3)cc2)ncc1CC(=O)O"
< 10 nM

Next molecule up: CC(c1ccc(NC(=O)c2ccc3ccccc3n2)cc1)c1ncc(CC(=O)O)c(N(C)C)n1 (stereo not shown)
10 to 100 nM

Please do the same for "O=C(O)Cc1cnc(Cc2ccc(NC(=O)c3ccc(C(F)(F)F)cc3)cc2)nc1N1CCCC1" as well.
< 10 nM

Another molecule: "COCc1nc(Cc2ccc(NC(=O)OCc3ccccc3)cc2)nc(N(C)C)c1CC(=O)O"
> 500 nM

Next: "CN(CC(=O)NC1CCCC1)c1nc(Cc2ccc(NC(=O)c3ccccn3)cc2)nc(Cl)c1CC(=O)O"
> 500 nM

Record: "CN(C)c1nc(Cc2ccc(NC(=O)c3ccc(F)c(F)c3)cc2)nc(Cl)c1CC(=O)O"
< 10 nM

Next: "COc1ccc(/C=C/C(=O)Nc2ccc(Cc3nc(N(C)C)c(CC(=O)O)c(N4CCOCC4)n3)cc2)cc1"
< 10 nM

Repeat for the following molecule: "Cc1nc(Cc2ccc(NC(=O)c3ccc(Cl)c(Cl)c3)cc2)nc(N2CCCC2)c1CC(=O)O"
< 10 nM

====

- Test system: human CRTH2 (Homo sapiens)
- Construct: expressed in transfected cells; host or cells: L1.2 cells, pEAK expression vector, puromycin-selected
- Method: Measurement of Ca2+ mobilization in the human CRTH2-transfected L1.2 cell line (Assay 1)
- Assay type: cell-based
- Protocol conditions: PGD2-induced Ca2+ mobilization in CRTH2-transfected L1.2 cells; compounds as yielded by solid phase synthesis, purity about 40 to 90%; read-out: Activity class
pIC50: −log10 of the molar value.
Observable: pIC50

I would be grateful if you could share the reported pIC50 for "CC(C)N(C)c1nc(Cc2ccc(NC(=O)c3ccc4ccccc4c3)cc2)nc(Cl)c1CC(=O)O" .
> 8.00

Okay, and "O=C(O)Cc1c(Cl)nc(Cc2ccc(NC(=O)c3ccc([N+](=O)[O-])cc3)cc2)nc1N1CCCC1" ?
7.00 to 8.00

Now give it for "COCc1nc(Cc2ccc(NC(=O)c3ccc4ccccc4c3)cc2)nc(N(C)C)c1CC(=O)O" too.
> 8.00

And for "CC(C)c1nc(Cc2ccc(NC(=O)c3ccc4ccccc4c3)cc2)nc(N(C)C)c1CC(=O)O" ?
7.00 to 8.00

And what about the molecule "CC(=O)Nc1ccc(C(=O)Nc2ccc(Cc3nc(Cl)c(CC(=O)O)c(N4CCCC4)n3)cc2)cc1" ?
7.00 to 8.00

Reference for the values: patent US7960393B2
